# merged literature set: Ki with Aurora kinase A (Homo sapiens, UniProt O14965)

Known Ki results, listed for orientation:
smiles-str: CN(Cc1cccnc1)c1nc(Nc2cc(C3CC3)[nH]n2)c2ccccc2n1
meas-value: < 100 nM

smiles-str: CNCc1ccc(-c2cnc3c(-c4ccccn4)c(N)nn3c2)cc1
meas-value: < 500 nM

smiles-str: CCC(=O)Nc1ccc(Sc2nc(Nc3cc(C)n[nH]3)cc(N3CC[C@@H](N(C)C)C3)n2)cc1
meas-value: ≤ 10 nM

# map each molecule to its Ki
1. Nc1nn2cc(-c3ccc(C(=O)N4CCC(CCO)CC4)cn3)cnc2c1-c1ccccn1
2. Cc1cc(Nc2cc(-c3ccccc3)nc(Nc3ccccc3)n2)n[nH]1
3. C#CCN(C)C(=O)c1ccc(-c2cnc3c(-c4ccccn4)c(N)nn3c2)nc1

1. < 500 nM
2. 100 to 1000 nM
3. < 500 nM

Hey, quick one: what's Ki for each of these?
1. CC(C)N1CCN(c2ccc(-c3cnc4c(-c5ccccn5)c(N)nn4c3)cc2)CC1
2. Cc1cnc2c(-c3cc(NC4CCCCC4)ncn3)c(N)nn2c1
3. Cc1ccc(Nc2nc(Nc3cc(C4CC4)[nH]n3)c3ccccc3n2)cc1C

["500 to 5000 nM", "500 to 5000 nM", "< 100 nM"]
